Recorded values, source the supplement of paper PMC11451515.

system: P12-Ichikawa; experiment: cell viability relative to DMSO control; higher = less cytotoxic; details: HPLM + 10% dialyzed FBS; 48 h; 0.00702 µM
Kindly supply the reported cell viability values for the records listed here.
Reply numerically in %, unit not repeated.

Item `Oc1cc(O)cc(/C=C/c2ccc(O)c(O)c2)c1` with P12-Ichikawa - cell viability?
100

Notebook entry, P12-Ichikawa assay: cell viability of `COc1cc([C@@H]2c3cc4c(cc3[C@@H](O[C@@H]3O[C@@H]5CO[C@@H](c6cccs6)O[C@H]5[C@H](O)[C@H]3O)[C@H]3COC(=O)[C@H]23)OCO4)cc(OC)c1O` = ?
92.9

Return cell viability measured with P12-Ichikawa given this compound: C[C@@H]1CC[C@@]2(OC1)OC1CC3C4CC=C5CC(O)CCC5(C)C4CCC3(C)C1[C@@H]2C (stereo partly specified)
97

Identify the measured cell viability of `CN(C)CCCNC(=O)c1ccc(-c2cc(O)c3ncccc3c2)cc1` for P12-Ichikawa.
106

Item `NC(=O)Nc1cc(-c2ccc(CN3CCOCC3)cc2)sc1C(N)=O` with P12-Ichikawa - cell viability?
126

Short answer please: cell viability, P12-Ichikawa, entry `N#CC(=C(/N)Sc1ccccc1N)/C(C#N)=C(\N)Sc1ccccc1N`
120

Item: `C#C[C@]1(O)CC[C@H]2[C@@H]3CCc4cc(OC)ccc4[C@H]3CC[C@@]21C` Test system: P12-Ichikawa Read-out: cell viability Value: ?
111

State its cell viability on P12-Ichikawa: `CN[S+](=O)([O-])CCc1ccc2[nH]cc(C3CCN(C)CC3)c2c1`
99.7

Hello, I am looking for reported cell viability with P12-Ichikawa for `OC1=CC=C(C=C1)\C2=C\C(=O)C3=C(O2)C=C(O)C=C3O` . Could you help?
113

Give P12-Ichikawa cell viability for `O=[N+]([O-])c1cnc(Sc2nnc(O)n2-c2ccc3c(c2)OCCO3)s1`
87.7

# get_value(readout= cell viability, system= P12-Ichikawa) for `CCN1C[C@]2(OC(=O)c3ccccc3NC(C)=O)CC[C@H](OC)[C@@]34[C@@H]2C[C@@H]([C@@H]13)[C@@]1(O)C[C@H](OC)[C@H]2C[C@@H]4[C@]1(O)[C@H]2OC`
110

Requested read-out cell viability, target or system P12-Ichikawa, entry `CCCCCCCCCCCCCCCCCCOP(=O)([O-])OC1CC[N+](C)(C)CC1`
114

Short answer please: cell viability, P12-Ichikawa, entry `CN(C)CC/C=C1/c2ccccc2COc2ccc(CC(=O)O)cc21`
116

Please tell me: cell viability of CCNc1cc(NC2CCC(O)CC2)nc(Nc2ccc3c(ccn3Cc3ccccc3)c2)n1 (stereo unspecified) , system P12-Ichikawa?
117

// fetch P12-Ichikawa cell viability for COc1cc(-c2nn(C3CCC(N4CCN(C(C)=O)CC4)CC3)c3ncnc(N)c23)ccc1NC(=O)c1cc2ccccc2n1C (stereo unspecified)
114

For P12-Ichikawa, provide cell viability of `O=C1NC(=O)/C(=C/c2cccc(C(F)(F)F)c2)S1` please.
111

Tell me reported cell viability for `CC(C)C[C@H](NC(=O)[C@H](Cc1ccccc1)NC(=O)c1cnccn1)B(O)O` , tested with P12-Ichikawa.
106

Lab note: need cell viability with P12-Ichikawa for entry `COC1=CC2=C(C=C1OC)[C@H]3[C@@H](CO2)OC4=C(C=CC5=C4\C=C/C(C)(C)O5)C3=O` , please look it up.
96.9

Request: cell viability, test system P12-Ichikawa, entry `CN(C)c1ccc(Nc2nc(N)n(C(=O)c3c(F)cccc3F)n2)cc1`
125

Look up cell viability with P12-Ichikawa for this compound: `O=C1N\2CCC3=C([NH]C4=C3C=CC=C4)C2=N/C5=CC=CC=C15`
128

Given the entry `Cc1cc(O)c2c(c1)C(=O)c1cc(O)cc(O)c1C2=O` , what cell viability was observed with P12-Ichikawa?
99.6

API: value(readout=cell viability, system=P12-Ichikawa) for record `NC(=O)c1cccc(N)c1`
70.8

Please provide the recorded cell viability for `COc1cc(N[S+](=O)([O-])c2ccc(N)cc2)nc(OC)n1` , tested on P12-Ichikawa.
116

Record lookup: for P12-Ichikawa, what cell viability belongs to `Cc1ncc([N+](=O)[O-])n1CCO` ?
126

Hi! What's the reported cell viability for `N[C@@H](CC(=O)N1CCn2c(nnc2C(F)(F)F)C1)Cc1cc(F)c(F)cc1F` on P12-Ichikawa?
104

Given the entry `O=C(CCCCCCC(=O)Nc1ccccc1)NO` , what cell viability was observed with P12-Ichikawa?
100

API: value(readout=cell viability, system=P12-Ichikawa) for record `Nc1nc(OCc2ccccc2)c2nc[nH]c2n1`
117

Query cell viability on P12-Ichikawa for `CC[C@@]1(O)C[C@H](O[C@H]2C[C@H](N(C)C)[C@H](O[C@H]3C[C@H](O)[C@H](O[C@H]4CCC(=O)[C@H](C)O4)[C@H](C)O3)[C@H](C)O2)c2c(cc3c(c2O)C(=O)c2c(O)cccc2C3=O)[C@H]1C(=O)OC`
97

Recall the recorded cell viability for `Cc1cn(CCN2CCN(c3ccccc3-c3cc(C#N)cc(C(=O)NCCCN4CCCC4)c3)CC2)c2ccccc12` with P12-Ichikawa and state it.
106

Please tell me: cell viability of CC(C)NCC(O)COc1ccc(CCOCC2CC2)cc1 (stereo unspecified) , system P12-Ichikawa?
113

Give the reported cell viability for `OC(COC1=C2C(=O)\C=C(/OC2=CC=C1)C([O-])=O)COC3=C4C(=O)\C=C(/OC4=CC=C3)C([O-])=O` (system: P12-Ichikawa).
87.4
